Target: T1, SgrAI A57E (UniProt Q9F6L0 1-339, A57E)
T1 sequence: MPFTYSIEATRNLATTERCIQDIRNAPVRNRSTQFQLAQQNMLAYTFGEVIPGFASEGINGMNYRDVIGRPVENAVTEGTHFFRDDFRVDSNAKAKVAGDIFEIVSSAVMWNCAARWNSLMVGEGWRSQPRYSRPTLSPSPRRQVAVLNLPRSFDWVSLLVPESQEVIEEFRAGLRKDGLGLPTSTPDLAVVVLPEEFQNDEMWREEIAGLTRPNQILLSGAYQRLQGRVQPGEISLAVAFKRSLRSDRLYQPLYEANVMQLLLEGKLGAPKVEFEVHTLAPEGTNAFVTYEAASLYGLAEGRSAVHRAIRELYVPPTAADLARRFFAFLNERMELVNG
Experiment: EMSA; 10 mM Ca2+; 20 mM Tris-HOAc pH 8.0 (RT), 50 mM KOAc, 10 mM Ca(OAc)2 (or Mg(OAc)2), 1 mM DTT, 4 C for anisotropy and gel run; 10% glycerol for EMSA and R131A/R134A, none for wild type with 40-mers
Conditions: protein: recombinant; chain copies: 2; label: 5' 32P (S56E, A57E) or 5' fluorescein on top strand (R131A, R134A)
pKd: −log10 of the molar value.
VALUE_KIND: pKd

>  <BINDER>
PC DNA (dsDNA) DNA 1: GATGCGTGGGTCTTCACA DNA 2: CCGGTGTGAAGACCCACGCATC

>  <ENDPOINT_RESULT>
8.30

$$$$
